Target: PAK2 (human) (UniProt Q13177)
Sequence (Q13177 whole entry, looked up): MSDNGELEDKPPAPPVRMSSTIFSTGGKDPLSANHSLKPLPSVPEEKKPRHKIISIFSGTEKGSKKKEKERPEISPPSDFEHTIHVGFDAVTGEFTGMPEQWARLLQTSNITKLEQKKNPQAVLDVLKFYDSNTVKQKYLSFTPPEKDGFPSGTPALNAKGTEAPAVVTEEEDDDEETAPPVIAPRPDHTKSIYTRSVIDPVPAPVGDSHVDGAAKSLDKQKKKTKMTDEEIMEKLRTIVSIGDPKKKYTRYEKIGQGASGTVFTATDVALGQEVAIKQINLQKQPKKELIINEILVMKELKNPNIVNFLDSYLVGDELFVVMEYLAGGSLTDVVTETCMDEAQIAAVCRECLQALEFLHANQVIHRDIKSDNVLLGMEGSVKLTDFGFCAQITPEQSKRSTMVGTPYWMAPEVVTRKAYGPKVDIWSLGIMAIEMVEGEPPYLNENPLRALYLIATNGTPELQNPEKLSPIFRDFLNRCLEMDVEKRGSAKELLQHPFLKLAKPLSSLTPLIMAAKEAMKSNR
Assay: radiometric filter-binding kinase assay, Kinase HotSpot
Conditions: compound 0.5 µM; ATP 10 µM
OBSERVATION TYPE: residual activity

Field request: residual activity | item: `Cc1ccc(S(=O)(=O)/C=C/C#N)cc1`
102%

Report residual activity for `CC(=O)c1ccc(N2CCOCC2)cc1O` please.
98.8%

Using the record for `CNc1cc2c(Nc3cccc(Br)c3)ncnc2cn1` , report its residual activity.
92.7%

Reported residual activity, compound `CNC(=O)c1cc(Oc2ccc(NC(=O)Nc3ccc(Cl)c(C(F)(F)F)c3)cc2)ccn1` : ____
101%

Look at this compound and give its reported residual activity. `Nc1ncnc2[nH]nc(Nc3ccc(F)cc3)c12`
103%

---

# residual activity values compiled below
Target: STK39 (human) (UniProt Q9UEW8)
Test: radiometric filter-binding kinase assay, Kinase HotSpot
Settings: compound 0.5 µM; ATP 10 µM
Numeric only. Scale: %

| COMPOUND SMILES | OBSERVATION TYPE | MEAS VALUE |
| --- | --- | --- |
| CCN(CC)C(=O)c1ccc(Nc2nc(OCC3CCCCC3)c3nc[nH]c3n2)cc1 | residual activity | 91.5 |
| COc1ccc(COc2ccc(Cc3cnc(N)nc3N)cc2OC)cc1 | residual activity | 87.6 |
| CCOC(=O)c1c(C)[nH]c(/C=C2\C(=O)Nc3ccccc32)c1C | residual activity | 85.1 |
| Cc1ccc(NC2=CC(=O)c3sc(C)nc3C2=O)cc1 | residual activity | 93.4 |
| CCC(=O)Nc1ccc2ncnc(Nc3cccc(Br)c3)c2c1 | residual activity | 96.1 |
| c1ccc(-c2n[nH]c3c2oc2ccccc23)cc1 | residual activity | 120 |
| CC(=O)c1ccc(N2CCOCC2)cc1O | residual activity | 90.9 |
| CC(C)N(CCC(=O)c1ccc2ccccc2c1)Cc1ccccc1 | residual activity | 88.3 |
| CC#CC(=O)Nc1cc2c(Nc3ccc(F)c(Cl)c3)ncnc2cn1 | residual activity | 91.3 |
| c1ccc(-c2n[nH]cc2-c2ccnc3ccccc23)nc1 | residual activity | 88.7 |

Lab note: need residual activity for `CCCC(=O)Oc1ccc2[nH]c(C(=O)c3cc4ccccc4[nH]3)cc2c1` on STK39 (human) (UniProt Q9UEW8), anyone have it?
117

What reported residual activity corresponds to `O=c1cc(N2CCOCC2)oc2c1ccc1ccccc12` on STK39 (human) (UniProt Q9UEW8)?
95.7

Lab note: need residual activity for `O=C1NC(=O)C(c2cn(CCCn3ccnc3)c3ccccc23)=C1Nc1ccccc1` on STK39 (human) (UniProt Q9UEW8), anyone have it?
99.2

---

Target: MAP3K9 (human)
Experiment: radiometric filter-binding kinase assay, Kinase HotSpot
Conditions: compound 0.5 µM; ATP 10 µM
OBSERVATION TYPE: residual activity
State the value with its unit after it.

For orientation, consider the following solved cases.
| COMPOUND SMILES | MEAS VALUE |
| --- | --- |
| CC#CC(=O)Nc1cc2c(Nc3ccc(F)c(Cl)c3)ncnc2cn1 | 95.8% |
| Cc1ccc(S(=O)(=O)/C=C/C#N)cc1 | 96.9% |

Please turn your attention to the following entry.
Would you kindly share the measured residual activity for `COc1cc2ncnc(Nc3cccc(Cl)c3)c2cc1OC` ?
82.8%
